Reference source: patent US12590099B2

Target: Recombinant human HDAC3/SMRT heterodimer (Homo sapiens, UniProt O15379)
Construct: FLAG (C); made in house
Sequence (O15379 whole entry): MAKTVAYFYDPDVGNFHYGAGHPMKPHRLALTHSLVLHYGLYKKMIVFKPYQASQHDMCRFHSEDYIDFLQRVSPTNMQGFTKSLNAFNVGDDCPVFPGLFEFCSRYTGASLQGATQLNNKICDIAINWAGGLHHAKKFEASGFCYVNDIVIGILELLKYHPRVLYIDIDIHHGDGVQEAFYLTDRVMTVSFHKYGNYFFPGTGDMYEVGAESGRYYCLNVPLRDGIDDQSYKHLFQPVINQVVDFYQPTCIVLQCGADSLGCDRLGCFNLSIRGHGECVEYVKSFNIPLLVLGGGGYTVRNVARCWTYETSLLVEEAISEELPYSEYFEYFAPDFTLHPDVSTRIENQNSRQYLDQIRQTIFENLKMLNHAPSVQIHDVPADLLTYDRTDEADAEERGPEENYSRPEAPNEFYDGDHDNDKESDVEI
Sequence (Q9Y618 1-899 partner limits assumed): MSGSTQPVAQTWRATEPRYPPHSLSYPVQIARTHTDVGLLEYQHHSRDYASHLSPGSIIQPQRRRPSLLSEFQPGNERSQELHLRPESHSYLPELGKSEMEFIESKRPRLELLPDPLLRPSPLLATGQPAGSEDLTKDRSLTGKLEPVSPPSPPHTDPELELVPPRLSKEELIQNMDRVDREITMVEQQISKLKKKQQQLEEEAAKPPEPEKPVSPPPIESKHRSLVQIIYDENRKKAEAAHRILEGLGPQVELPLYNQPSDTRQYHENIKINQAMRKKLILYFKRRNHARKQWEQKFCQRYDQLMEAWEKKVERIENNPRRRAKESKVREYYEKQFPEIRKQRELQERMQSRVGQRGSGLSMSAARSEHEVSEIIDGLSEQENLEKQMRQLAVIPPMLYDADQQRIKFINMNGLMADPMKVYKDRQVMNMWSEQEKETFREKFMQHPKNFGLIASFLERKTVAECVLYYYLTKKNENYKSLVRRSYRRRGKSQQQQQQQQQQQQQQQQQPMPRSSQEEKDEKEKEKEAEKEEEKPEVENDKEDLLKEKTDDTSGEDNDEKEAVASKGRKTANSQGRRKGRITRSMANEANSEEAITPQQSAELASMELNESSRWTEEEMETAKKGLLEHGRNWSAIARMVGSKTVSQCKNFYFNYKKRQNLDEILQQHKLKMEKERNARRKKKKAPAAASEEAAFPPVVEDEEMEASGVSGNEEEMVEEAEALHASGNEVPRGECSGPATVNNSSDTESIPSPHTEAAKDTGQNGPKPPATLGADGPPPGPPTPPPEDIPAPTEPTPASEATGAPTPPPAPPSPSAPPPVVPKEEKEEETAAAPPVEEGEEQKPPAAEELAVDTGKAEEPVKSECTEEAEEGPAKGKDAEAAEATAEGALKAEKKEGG
Assay: Human HDAC enzyme inhibitor Fluor-de-Lys assay, HDAC3/SMRT
Assay type: biochemical
Conditions: recombinant human HDAC3/SMRT, Fluor-de-Lys assay
Parameter log10(IC50): see the listing below.
A value of 2 here means IC50 of 100 in nM, since values are log10.

- COMPOUND: "CCC(=O)CCCCC[C@H](NC(=O)[C@H]1CC12CCN(C)CC2)c1ncc(-c2cnc3c(c2)ncn3C)[nH]1"
  MEASURED_TARGET: "Recombinant human HDAC3/SMRT heterodimer (Homo sapiens, UniProt O15379)"
  QUANTITY_NAME: "log10(IC50)"
  EXPERIMENTAL_RESULT: 1.76

## Task Provide the documented log10(IC50) with Recombinant human HDAC3/SMRT heterodimer (Homo sapiens, UniProt O15379) as the system for CCC(=O)CCCCC[C@H](NC(=O)CC1CC2(CNC2)C1)c1ncc(-c2ccccc2)[nH]1
## Result 0.99

## Task Query CCC(=O)CCCCC[C@H](NC(=O)[C@H]1CC12CCN(CC1CC1)CC2)c1ncc(-c2cc3ccn(C)c(=O)c3cc2OC)o1 next
## Result -0.68
